Attribution: patent US11279735B2

tested on: Escherichia coli (E. coli) strain CFT073 ATCC 700928; assay type: cell-based; settings: ATCC 700928, 22 h
Recorded Metric: MIC (µM)
Field format: number, assumed µM, no unit text.

Check out these entries, answers already filled in.
>  <Molecule>
CCCCCCCCCC[C@H]1OC(=O)CNC(=O)[C@H]([C@H](C)O)NC(=O)[C@H](CN)NC(=O)[C@H]([C@H](C)CC)NC(=O)C(CCC(F)(F)F)N(C)C(=O)[C@@H]1C (single isomer, unassigned)

>  <Uom>
µM

>  <MIC>
25

$$$$
>  <Molecule>
CCCCCC[C@H]1OC(=O)CNC(=O)[C@H]([C@H](C)O)NC(=O)[C@H](CN)NC(=O)[C@H](C2CCCCC2)NC(=O)[C@H](CC(C)C)N(C)C(=O)[C@@H]1CCc1ccc(C)cc1

>  <Uom>
µM

>  <MIC>
3.7

$$$$
>  <Molecule>
CCCCCCCCCC[C@H]1OC(=O)CNC(=O)[C@H](CO)NC(=O)[C@H](CO)NC(=O)[C@H](C2CCCCC2)NC(=O)[C@H](CC(C)C)N(C)C(=O)[C@@H]1C

>  <Uom>
µM

>  <MIC>
3.1

$$$$
>  <Molecule>
CCCCCC[C@H]1OC(=O)CNC(=O)[C@H]([C@H](C)O)NC(=O)[C@H](CN)NC(=O)[C@H](C2CCCCC2)NC(=O)[C@H](CCC)N(C)C(=O)[C@@H]1C

>  <Uom>
µM

>  <MIC>
4.1

$$$$

MIC reading for `CCCCCC[C@H]1OC(=O)CNC(=O)[C@H]([C@H](C)O)NC(=O)[C@H](CO)NC(=O)[C@H](C2CCCCC2)NC(=O)[C@H](CCC)N(C)C(=O)[C@@H]1C` : 6.1

----------
system: Escherichia coli (E. coli) strain CFT073 ATCC 700928; type: cell-based; details: ATCC 700928, 22 h
Recorded measurements of MIC, one per entry

>  <Molecule>
CCCCCCCCCC[C@H]1OC(=O)CNC(=O)[C@H](CO)NC(=O)[C@H](CO)NC(=O)[C@H](C(C)C)NC(=O)[C@H](CC(C)C)N(C)C(=O)[C@@H]1C [Example 39]

>  <Recorded Metric>
MIC

>  <Reading>
25 µM

$$$$
>  <Molecule>
CCCCCCCCCC[C@H]1OC(=O)CNC(=O)[C@H]([C@H](C)O)NC(=O)[C@H](CN)NC(=O)[C@H]([C@@H](C)CC)NC(=O)[C@H](CC(C)C)N(C)C(=O)[C@@H]1C [Example 23]

>  <Recorded Metric>
MIC

>  <Reading>
3.1 µM

$$$$

We now examine a further molecule.
Summary: CC(C)C[C@H]1C(=O)N[C@@H](C2CCCCC2)C(=O)N[C@@H](CN)C(=O)N[C@@H]([C@H](C)O)C(=O)NCC(=O)O[C@H](CCC(C)(C)C)[C@@H](C)C(=O)N1C [Example 63] , Escherichia coli (E. coli) strain CFT073 ATCC 700928, MIC = 4.4 µM

----------
test system: Escherichia coli (E. coli) strain CFT073 ATCC 700928; format: cell-based; settings: ATCC 700928, 22 h
Recorded measurements of MIC, one per entry
Field format: number, assumed µM, no unit text.

>  <Compound String>
CCCCCCCCCC[C@H]1OC(=O)CNC(=O)[C@H](CNC(N)=O)NC(=O)[C@H](CO)NC(=O)[C@H]([C@@H](C)CC)NC(=O)[C@H](CC(C)C)N(C)C(=O)[C@@H]1C

>  <Reading>
25

$$$$
>  <Compound String>
CCCCCC[C@H]1OC(=O)CNC(=O)[C@H](CO)NC(=O)[C@H](CN)NC(=O)[C@H]([C@H](C)CC)NC(=O)[C@H](CC(C)C)N(C)C(=O)[C@@H]1C

>  <Reading>
25

$$$$
>  <Compound String>
CCCCCCCCCC[C@H]1OC(=O)CNC(=O)[C@H]([C@H](C)O)NC(=O)[C@H](CN)NC(=O)[C@H](C2CCCC2)NC(=O)[C@H](CC(C)C)N(C)C(=O)[C@@H]1C

>  <Reading>
25

$$$$

We now examine a further compound.
MIC reading for `CC(C)CCCCCC[C@H]1OC(=O)CNC(=O)[C@H]([C@H](C)O)NC(=O)[C@H](CN)NC(=O)[C@H](C2CCCCC2)NC(=O)[C@H](CC(C)C)N(C)C(=O)[C@@H]1C` : 0.78
